Origin of values: ChEMBL document CHEMBL3885861

organism: Rattus norvegicus; assay: Open TG-GATES - Regimen: Daily Repeat; type: toxicity, organism-based, Sprague-Dawley; parameters: regimen Daily Repeat, gender Male, age 6 weeks; conditions: in vivo, po, 0 mg/kg, […], tissue Plasma, route gavage, dose level Control, time 14 day
measured.parameter: TG (mg/dL)
Report the value in mg/dL with no unit label.

Below, 4 compounds whose answers are already recorded.
compound	TG (mg/dL)
COc1ccc2[nH]c([S+]([O-])Cc3ncc(C)c(OC)c3C)nc2c1 (stereo not given) [OMEPRAZOLE]	95.4
CCOC(=O)CCC(=O)O[C@H]1[C@H](O[C@@H]2[C@@H](C)[C@H](O[C@H]3C[C@@](C)(OC)[C@@H](O)[C@H](C)O3)[C@@H](C)C(=O)O[C@H](CC)[C@@](C)(O)[C@H](O)[C@@H](C)C(=O)[C@H](C)C[C@@]2(C)O)O[C@H](C)C[C@@H]1N(C)C [ERYTHROMYCIN ETHYLSUCCINATE]	135.2
CC1=C(/C=C/C(C)=C/C=C/C(C)=C/CO)C(C)(C)CCC1 [RETINOL]	103
NC(N)=Nc1nc(CSCCC(N)=NS(N)(=O)=O)cs1 [FAMOTIDINE]	96.4

Consider the record given below.
Reported TG of CCCNC(=O)NS(=O)(=O)c1ccc(Cl)cc1 [CHLORPROPAMIDE] : 158.4
